# credit: patent US20260242735A1

Target: human CD33 N237A (human, UniProt P20138 18-364)
Sequence (P20138 18-364 N237A limits assumed): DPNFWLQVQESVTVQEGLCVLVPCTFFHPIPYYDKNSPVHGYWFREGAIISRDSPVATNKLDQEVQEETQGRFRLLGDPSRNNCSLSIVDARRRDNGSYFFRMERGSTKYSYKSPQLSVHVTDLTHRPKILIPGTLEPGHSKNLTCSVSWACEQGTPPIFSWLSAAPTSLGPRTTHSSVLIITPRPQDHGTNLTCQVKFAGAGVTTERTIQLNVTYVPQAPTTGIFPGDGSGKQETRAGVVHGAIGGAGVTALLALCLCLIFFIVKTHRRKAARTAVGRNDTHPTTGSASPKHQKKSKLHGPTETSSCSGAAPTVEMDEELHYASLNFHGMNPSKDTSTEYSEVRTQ
Assay: alanine scan, flow cytometry, HEK293-T;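 also: antibody binding to each alanine-substituted CD33 mutant expressed transiently in HEK293-T, read as fluorescence minus background, mean of duplicates, relative to wild-type CD33 set as 100%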
Field: Mean % WT Binding. Provide a value for each of the binders that follow.
Only the number, expressed in %, is required.

Note down Mean % WT Binding recorded for Refmab #2 (antibody, V domains shown, In the alanine scan antibodies were used as IgG or Fab) VH: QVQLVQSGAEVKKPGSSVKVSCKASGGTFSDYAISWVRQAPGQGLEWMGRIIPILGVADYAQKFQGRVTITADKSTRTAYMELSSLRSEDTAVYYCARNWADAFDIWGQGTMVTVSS VL: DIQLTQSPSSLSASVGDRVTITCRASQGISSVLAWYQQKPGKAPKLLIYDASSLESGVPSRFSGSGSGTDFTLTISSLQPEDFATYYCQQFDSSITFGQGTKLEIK
112

Please supply the value of reported Mean % WT Binding for the item Refmab #3 (antibody, V domains shown, In the alanine scan antibodies were used as IgG or Fab) VH: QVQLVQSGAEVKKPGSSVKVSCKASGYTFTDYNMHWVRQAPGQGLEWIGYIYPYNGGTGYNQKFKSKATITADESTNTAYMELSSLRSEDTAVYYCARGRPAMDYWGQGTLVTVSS VL: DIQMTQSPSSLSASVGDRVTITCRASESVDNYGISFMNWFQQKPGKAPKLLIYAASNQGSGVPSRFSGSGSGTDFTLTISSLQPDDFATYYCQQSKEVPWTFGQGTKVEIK
85.6

State, in one line, measured Mean % WT Binding of Refmab #4 (antibody, V domains shown, In the alanine scan antibodies were used as IgG or Fab) VH: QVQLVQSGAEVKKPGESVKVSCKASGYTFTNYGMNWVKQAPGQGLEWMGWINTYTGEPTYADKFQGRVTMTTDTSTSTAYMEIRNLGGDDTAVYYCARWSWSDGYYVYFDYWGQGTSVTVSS VL: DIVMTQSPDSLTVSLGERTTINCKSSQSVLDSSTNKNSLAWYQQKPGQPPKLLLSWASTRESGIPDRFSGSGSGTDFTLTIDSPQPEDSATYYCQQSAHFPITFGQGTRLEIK
72.9
